Target: T1, canine OX40L, full length membrane form, expressed on HEK293 cells (canine)
T1 chain: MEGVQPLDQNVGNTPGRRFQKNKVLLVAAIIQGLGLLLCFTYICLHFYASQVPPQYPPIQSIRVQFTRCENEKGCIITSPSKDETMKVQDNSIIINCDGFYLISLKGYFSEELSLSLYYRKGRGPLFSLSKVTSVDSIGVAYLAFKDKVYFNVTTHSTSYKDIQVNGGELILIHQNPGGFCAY
Assay: cell-based or functional assay
# label = true if % Signal Inhibition Rep3 < 70% else false

| binder | group_label |
| --- | --- |
| PMX155 (antibody, V domains shown) VH: ELHLVESGGDLVKPAGSLRLSCVASGFTFSSFRMSWVRQSPGKGLQFVAGINSDGYNTQYRDDVKGRFTISRDNTEKTLYLQMNNLRVEDTAMYYCVKDQGSWGGNFDFWGQGTLVTVSS VL: SYGLTQPPSVNVTLRETAHITCGGDSIGSKYVQWIQQIPGQAPVVIIYKDRNRPTGIPERFSGANSGNTATLTISGALAEDEADYYCQVGDSGTSVFGGGTHLTVL | true |
| PMX050 (antibody, V domains shown, also called PMX50) VH: EVQLVESGGDLVKPEGSLRLSCVVSGFTFTTYDMSWVRQAPGKGLQWVAYITNDGRITTYTDAVKGRFTISRDNAKNTLYLQMNSLRTVDTGVYYCARHSSSWSRGRFGLDYWGHGTSVFVSS VL: SYVLTQLPSKNVTLKQPAHITCGGDNIGRKGVHWYQQKLGQAPVLIIYYDSSRPTGIPERFSGANSGNTATLTISGALAEDEADYYCQVWDNSASVFGGGTHLTVL | false |
| PMX061 (antibody, V domains shown, also called PMX61) VH: EVQLVESGGDLVKPGGSLRLSCVASGFTFSSFPMSWVRQAPGKGLQWVAYINSGGSSTSYADVVKGRFTISRDNAKNTLYLQMNSLRADDTAVYYCARTFPTVATDNWFYYWGQGTLVTVSS VL: SYVLTQLPSKNVTLKQAAHITCGGDNIGSKSVHWYQQKLGQAPVLIIYYDSSRPTGIPERFSGANSGNTATLTISGALAEDEADYYCQVWDSSAKWVFGEGTQLTVL | true |
